IC50 listing for selected molecules.
Molecular target: LPA1 (Homo sapiens, UniProt Q92633)
Construct: ProLink (PK) beta-galactosidase enzyme-fragment tag
Sequence (Q92633 whole entry, the tested form may be a part): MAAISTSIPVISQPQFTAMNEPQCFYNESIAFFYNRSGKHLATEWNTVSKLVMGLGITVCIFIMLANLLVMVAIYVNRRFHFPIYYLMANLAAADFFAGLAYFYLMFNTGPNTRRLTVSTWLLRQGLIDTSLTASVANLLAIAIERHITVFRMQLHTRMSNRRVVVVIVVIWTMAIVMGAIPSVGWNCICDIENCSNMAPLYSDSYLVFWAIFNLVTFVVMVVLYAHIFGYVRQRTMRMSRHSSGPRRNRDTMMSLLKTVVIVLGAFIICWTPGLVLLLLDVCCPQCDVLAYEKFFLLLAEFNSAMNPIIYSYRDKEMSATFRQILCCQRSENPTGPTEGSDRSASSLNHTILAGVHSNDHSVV
Assay: LPA1 calcium flux assay (LPA1 functional antagonist assay)
Settings: PathHunter CHO-K1 EDG2 β-Arrestin cell line; calcium indicator dye; stimulated with EC80 concentration of LPA; FLIPR Tetra

Examples with their reported IC50 follow.
{"Molecule": "CCc1nc(-c2nnn(C)c2COc2nccc(C3CCC3)n2)ccc1N1C[C@@H](CC(=O)O)CC(F)(F)C1", "IC50": "< 100 nM"}
{"Molecule": "CCc1nc(-c2nnn(C)c2Cn2cc(CC(C)C)ccc2=O)ccc1CN1CC(C(=O)O)CC(F)(F)C1 (single isomer, unassigned) [Example 154]", "IC50": "100 to 500 nM"}

The reported IC50 of the molecule "CCc1nc(-c2nnn(C)c2COc2nnn(CC3CC3)n2)ccc1N1C[C@@H](CC(=O)O)CC(F)(F)C1" was < 100 nM

---

Target: LPA1 (Homo sapiens, UniProt Q92633)
Construct: ProLink (PK) beta-galactosidase enzyme-fragment tag
Test: LPA1 calcium flux assay (LPA1 functional antagonist assay)
Conditions: PathHunter CHO-K1 EDG2 β-Arrestin cell line; calcium indicator dye; stimulated with EC80 concentration of LPA; FLIPR Tetra
Readout kind: IC50

{"Molecule": "Cc1nc(-c2nnn(C)c2COc2cc(-n3cccn3)ncn2)ccc1N1C[C@@H](CC(=O)O)CC(F)(F)C1", "IC50": "< 100 nM"}
{"Molecule": "CCc1nc(-c2cnn(C)c2COc2nccc(C3CCC3)n2)ncc1N1C[C@@H](CC(=O)O)CC(F)(F)C1", "IC50": "< 100 nM"}
{"Molecule": "Cc1nc(-c2nnn(C)c2COc2nccc(C3CCC3)n2)ccc1N1C[C@@H](CC(=O)O)CC(F)(F)C1", "IC50": "< 100 nM"}
{"Molecule": "CCc1nc(-c2nnn(C)c2COc2cc(-n3cccn3)ncn2)ccc1N1CCC[C@H](CC(=O)O)C1", "IC50": "< 100 nM"}
{"Molecule": "CCc1nc(-c2nnn(C)c2COC(=O)N(C)C2CCC2)ccc1N1C[C@@H](CC(=O)O)CC(F)(F)C1", "IC50": "< 100 nM"}
{"Molecule": "CCc1nc(-c2cnn(C)c2Cn2ncc(CC3CC3)n2)ncc1N1C[C@@H](CC(=O)O)CC(F)(F)C1", "IC50": "100 to 500 nM"}

Switching to the query record.
The reported IC50 of the molecule "CCc1nc(-c2nnn(C)c2Cn2ccc(CC3CC3)c(C)c2=O)ccc1N1C[C@H](CC(=O)O)CC(F)(F)C1" was > 5000 nM

---

Biological target: LPA1 (Homo sapiens, UniProt Q92633)
Construct: ProLink (PK) beta-galactosidase enzyme-fragment tag
Test: LPA1 calcium flux assay (LPA1 functional antagonist assay)
Details: PathHunter CHO-K1 EDG2 β-Arrestin cell line; calcium indicator dye; stimulated with EC80 concentration of LPA; FLIPR Tetra
pIC50: −log10 of the molar value.
Readout kind: pIC50

Examples with their reported pIC50 follow.
{"Compound": "Cc1nc(-c2nnn(C)c2COc2nccc(C3CC3)n2)ccc1N1C[C@@H](CC(=O)O)CC(F)(F)C1", "pIC50": "5.30 to 6.30"}
{"Compound": "Cc1nc(-c2nnn(C)c2COc2nccc(C3CCC3)n2)ccc1CN1CC(C(=O)O)CC(F)(F)C1 (single isomer, unassigned) [Example 147]", "pIC50": "> 7.00"}
{"Compound": "CCc1nc(-c2nnn(C)c2COc2nccc(C3CCC3)n2)ccc1CN1CC(C(=O)O)CC(F)(F)C1 (single isomer, unassigned) [Example 152]", "pIC50": "> 7.00"}
{"Compound": "CCc1nc(-c2nnn(C)c2COc2ncnn2CC(C)C)ccc1N1C[C@@H](CC(=O)O)CC(F)(F)C1", "pIC50": "6.30 to 7.00"}
{"Compound": "Cc1nc(-c2nnn(C)c2COc2cc(-n3ccnn3)ncn2)ccc1N1C[C@@H](CC(=O)O)CC(F)(F)C1", "pIC50": "> 7.00"}

The reported pIC50 of the compound CCCc1ccc(=O)n(Cc2c(-c3ccc(CN4CC(C(=O)O)CC(F)(F)C4)c(CC)n3)nnn2C)c1 (single isomer, unassigned) [Example 149] was 6.30 to 7.00

The reported pIC50 of the compound "Cn1nnc(-c2ccc(N3CCC[C@H](CC(=O)O)C3)c(C(F)F)n2)c1Cn1ncc(CC2CC2)n1" was > 7.00

The reported pIC50 of the compound CCC(C)n1ccn(Cc2c(-c3ccc(N4C[C@@H](CC(=O)O)CC(F)(F)C4)c(C)n3)nnn2C)c1=O (stereo partly shown) was < 5.30

The reported pIC50 of the compound CCCc1ccc(=O)n(Cc2c(-c3ccc(N4CC(CC(=O)O)CCC4=O)c(CC)n3)nnn2C)c1 (single isomer, unassigned) [Example 54] was < 5.30

The reported pIC50 of the compound CCCc1cnn(Cc2c(-c3ccc(CN4CC(C(=O)O)CC(F)(F)C4)c(C)n3)nnn2C)c(=O)c1 (single isomer, unassigned) [Example 159] was < 5.30

The reported pIC50 of the compound "Cc1nc(-c2nnn(C)c2Cn2ccn(CC(C)C)c2=O)ccc1N1C[C@@H](CC(=O)O)CC(F)(F)C1" was < 5.30

The reported pIC50 of the compound "CCCn1cc(OCc2c(-c3ccc(N4C[C@@H](CC(=O)O)CC(F)(F)C4)c(CC)n3)nnn2C)c(=O)cn1" was 5.30 to 6.30

The reported pIC50 of the compound CCCc1ccc(=O)n(Cc2c(-c3ccc(N4C[C@H](F)C[C@@H](CC(=O)O)C4)c(CC)n3)nnn2C)c1 (single isomer, unassigned) was < 5.30

The reported pIC50 of the compound "CCCc1ccc(=O)n(Cc2c(-c3ccc(N4CCC[C@H](CC(=O)O)C4)c(C(F)(F)F)n3)nnn2C)c1" was > 7.00

The reported pIC50 of the compound "CCc1nc(-c2nnn(C)c2CNc2noc(CC3CC3)n2)ccc1N1C[C@@H](CC(=O)O)CC(F)(F)C1" was 6.30 to 7.00

The reported pIC50 of the compound "Cc1nc(-c2onc(C)c2COc2cc(-n3cccn3)ncn2)ccc1N1C[C@@H](CC(=O)O)CC(F)(F)C1" was > 7.00

The reported pIC50 of the compound CCCN(C)C(=O)OCc1c(-c2ccc(CN3CC(C(=O)O)CC(F)(F)C3)c(CC)n2)nnn1C (single isomer, unassigned) [Example 164] was < 5.30

---

Target: LPA1 (Homo sapiens, UniProt Q92633)
Construct: ProLink (PK) beta-galactosidase enzyme-fragment tag
Assay: LPA1 calcium flux assay (LPA1 functional antagonist assay)
Details: PathHunter CHO-K1 EDG2 β-Arrestin cell line; calcium indicator dye; stimulated with EC80 concentration of LPA; FLIPR Tetra
IC50 listing for selected compounds.

{"Smiles code": "CCc1nc(-c2cnn(C)c2Cn2cc(CC(C)C)ccc2=O)ncc1N1C[C@@H](CC(=O)O)CC(F)(F)C1", "IC50": "0.5 to 5 µM"}
{"Smiles code": "CCCn1ncnc1OCc1c(-c2ccc(N3C[C@@H](CC(=O)O)CC(F)(F)C3)c(CC)n2)nnn1C", "IC50": "0.5 to 5 µM"}
{"Smiles code": "CCCn1ccnc(OCc2c(-c3ccc(N4C[C@@H](CC(=O)O)CC(F)(F)C4)c(C)n3)nnn2C)c1=O", "IC50": "> 5 µM"}

The reported IC50 of the compound "CCc1nc(-c2nnn(C)c2Cn2cc(C#CC3CC3)ccc2=O)ccc1N1C[C@@H](CC(=O)O)CC(F)(F)C1" was 0.5 to 5 µM

---

Molecular target: LPA1 (Homo sapiens, UniProt Q92633)
Construct: ProLink (PK) beta-galactosidase enzyme-fragment tag
Assay: LPA1 calcium flux assay (LPA1 functional antagonist assay)
Conditions: PathHunter CHO-K1 EDG2 β-Arrestin cell line; calcium indicator dye; stimulated with EC80 concentration of LPA; FLIPR Tetra
pIC50: −log10 of the molar value.
pIC50 listing for selected compounds.

Examples with their reported pIC50 follow.
{"Compound": "CCCc1ccc(=O)n(Cc2c(-c3ncc(CN4CC(C(=O)O)CC(F)(F)C4)c(CC)n3)cnn2C)c1 (single isomer, unassigned) [Example 160]", "Readout kind": "pIC50", "Observed value": "5.30 to 6.30"}
{"Compound": "CCCc1ccc(=O)n(Cc2c(-c3ccc(N4CCC[C@H](CC(=O)O)C4)c(C(F)F)n3)nnn2C)c1", "Readout kind": "pIC50", "Observed value": "> 7.00"}

Switching to the query record.
The reported pIC50 of the compound "CCc1nc(-c2nnn(C)c2COc2ncnn2CC2CC2)ccc1N1C[C@@H](CC(=O)O)CC(F)(F)C1" was 6.30 to 7.00

---

Target: LPA1 (Homo sapiens, UniProt Q92633)
Construct: ProLink (PK) beta-galactosidase enzyme-fragment tag
Assay: LPA1 calcium flux assay (LPA1 functional antagonist assay)
Conditions: PathHunter CHO-K1 EDG2 β-Arrestin cell line; calcium indicator dye; stimulated with EC80 concentration of LPA; FLIPR Tetra
Method: Following overnight culture, cells were loaded with calcium indicator dye from the HitHunter Calcium No WashPLUS Assay kit (Eurofins DiscoverX Corporation, Cat #93-0091) for 45 minutes at 37° C. […] IC50 values were determined by Chemical and Biological Information System from ChemInnovation Software, Inc. The compounds of this invention were tested for their activity to inhibit LPA1 as determined in an LPA1 functional antagonist assay as described herein.
pIC50: −log10 of the molar value.
Readout kind: pIC50

The reported pIC50 of the molecule CCCc1ccc(=O)n(Cc2c(-c3ccc(N4C[C@@H](CC(=O)O)CC(F)(F)C4)c(C#N)n3)nnn2C)c1 [Example 49] was < 5.30

The reported pIC50 of the molecule Cn1nnc(-c2ccc(N3CCC[C@H](CC(=O)O)C3)c(C(F)(F)F)n2)c1Cn1cc(C2CC2)ccc1=O [Example 59] was > 7.00

The reported pIC50 of the molecule CCCc1cccn(Cc2c(-c3ccc(N4C[C@@H](CC(=O)O)CC(F)(F)C4)c(C)n3)nnn2C)c1=O [Example 5] was < 5.30

The reported pIC50 of the molecule CCCc1ccc(=O)n(Cc2c(-c3ccc(N4CC(CC(=O)O)CCC4=O)c(CC)n3)nnn2C)c1 (single isomer, unassigned) [Example 55] was < 5.30

The reported pIC50 of the molecule CCc1nc(-c2nnn(C)c2COc2nccc(N3CCCC3)n2)ccc1N1CCC[C@H](CC(=O)O)C1 [Example 83] was 6.30 to 7.00

The reported pIC50 of the molecule CCCc1ccc(=O)n(Cc2c(-c3ccc(CN4CC(C(=O)O)CC(F)(F)C4)c(CC)n3)nnn2C)c1 (single isomer, unassigned) [Example 150] was 6.30 to 7.00
